Experiment: Brain-to-plasma ratio determination in Sprague-Dawley rats
Assay type: in vivo
Conditions: rat, male Sprague-Dawley rats, four hours after a single oral dose (3, 4, 5, or 10 mg/kg)
Procedure: Example B: Brain-to-Plasma Ratio Determination in Sprague-Dawley Rats The brain-to-plasma ratio (Kp) was determined in male Sprague-Dawley rats (7-9 weeks old) four hours after a single oral dose. Rats were acclimated and given free access to standard rodent chow and water throughout the entire study. […] The weight of each brain was measured and recorded, and samples were immediately stored on dry ice. […]
Measured Parameter: Kp at 4 h

# Compound, Observed
data = [
    ("Cc1c(-c2nc(Nc3ccc(C4CCN(C)CC4)cn3)ncc2F)sc2c1C(=O)N(C)C21CCCC1 [Example 25]", "1 to 3"),
    ("CCN1CCC(c2ccc(Nc3ncc(F)c(-c4sc5c(c4C)C(=O)N(C)C54CC4)n3)nc2)C1 (centres unmarked) [Example 71]", "1 to 3"),
    ("Cc1c(-c2nc(Nc3ccc(C4CCN(C)CC4)cn3)ncc2F)sc2c1C(=O)N(C)CC21CC1 [Example 28]", "≥ 3"),
    ("CCN1CC2(CC(c3ccc(Nc4ncc(F)c(-c5sc6c(c5C)C(=O)N(C)C65CC5)n4)nc3)C2)C1 [Example 81]", "< 1"),
    ("Cc1c(-c2nc(Nc3ccc(C4CCN(C(C)C)C4)cn3)ncc2F)sc2c1C(=O)N(C)C21CC1 (centres unmarked) [Example 16]", "< 1"),
    ("Cc1c(-c2nc(Nc3ccc(C4CCN(C)CC4)cn3)ncc2F)sc2c1C(=O)N(C)CC21CCC1 [Example 48]", "≥ 3"),
    ("CCN1C(=O)c2cc(-c3nc(Nc4ccc(C5CCCN(C)C5)cn4)ncc3C)sc2C12CC2 (centres unmarked) [Example 18]", "1 to 3"),
    ("CCN1CCN(c2ccc(Nc3ncc(F)c(-c4cc5c(s4)C4(CCCC4)CN(C)C5=O)n3)nc2)CC1 [Example 3]", "≥ 3"),
    ("Cc1c(-c2nc(Nc3ccc(N4CC5(CCN(C)C5)C4)cn3)ncc2F)sc2c1C(=O)N(C)CC21CC1 [Example 35]", "1 to 3"),
    ("CN1CCC(c2ccc(Nc3ncc(F)c(-c4cc5c(s4)C4(CCCC4)N(C)C5=O)n3)nc2)CC1 [Example 20]", "≥ 3"),
    ("Cc1c(-c2nc(Nc3ccc(C4CCN(C)CC4)cn3)ncc2F)sc2c1C(=O)N(C)C21CC1 [Example 6]", "1 to 3"),
    ("CN1CCC(c2ccc(Nc3ncc(F)c(-c4cc5c(s4)C4(CCC4)CN(C)C5=O)n3)nc2)CC1 [Example 47]", "1 to 3"),
    ("CN1CCC(c2ccc(Nc3ncc(F)c(-c4cc5c(s4)C4(CC4)CN(C)C5=O)n3)nc2)CC1 [Example 29]", "1 to 3"),
    ("CCN1CC2(C1)CN(c1ccc(Nc3ncc(F)c(-c4cc5c(s4)C4(CCCC4)CN(C)C5=O)n3)nc1)C2 [Example 1]", "1 to 3"),
]
